Reference source for all entries: patent US10197567B2

System: PatD
Assay: PatD enzyme reaction: introduction of azoline rings into substrate peptides, mass change read by MALDI-TOF-MS
Format: biochemical, Prochloron didemni
Conditions: modification with PatD of synthesized substrates (Table 11-2)
Square brackets hold non-standard residues; d marks the D form. Ends that are not written are not given here. * marks the point of attachment. Dap = NC[C@H](N)C(=O)O; For = O=C*
REPORTED ENDPOINT: Dehydrated molecules

Ac—LAELSEEALGDA-GGGGG-VXAXIXFX (X=Dap)-A: synthetic peptide significantly different from a natural substrate (FIG. 17) (Ac-LAELSEEALGDAGGGGGV[Dap]A[Dap]I[Dap]F[Dap]A) : 4
fMLAELSEEALGDA-GGGGG-VXAX (X=Dap)-A: PatD substrate with shortened leader, GGGGG and Dap in the cassette (For-MLAELSEEALGDAGGGGGV[Dap]A[Dap]A) : 1
fMNKKNILPQQGQPVIRLTAGQLSSQLAELSEEALGDA-GLEAS-VXAX (X=Dap)-AYDGVEPS: PatD substrate with Dap in the cassette (For-MNKKNILPQQGQPVIRLTAGQLSSQLAELSEEALGDAGLEASV[Dap]A[Dap]AYDGVEPS) : 2
